- assaySummary: Acute gastral ulcerogenity
- Set-up: species or system male Sprague-Dawley rats
- testParameters: rat, in vivo, po
Reported TD50 at 24 h values follow for various compounds

Example entries begin here.
Could you share which TD50 at 24 h value was measured for CCCN(CCC)C1=NN=C(c2cc(C(C)(C)C)c(O)c(C(C)(C)C)c2)CS1 ?
100 to 200 mg/kg

Then what about the compound CCN(C)C1=NN=C(c2cc(C(C)(C)C)c(O)c(C(C)(C)C)c2)CS1 ?
> 200 mg/kg

Then what about the compound CCN(CC)C1=NN=C(c2cc(C(C)(C)C)c(O)c(C(C)(C)C)c2)CS1 ?
> 200 mg/kg

Next:
Could you share which TD50 at 24 h value was measured for CC1SC(N(C)C)=NN=C1c1cc(C(C)(C)C)c(O)c(C(C)(C)C)c1 (stereo not drawn) ?
> 200 mg/kg

Then what about the compound CCN(C1=NN=C(c2cc(C(C)(C)C)c(O)c(C(C)(C)C)c2)CS1)C(C)C ?
200 mg/kg

Then what about the compound C=CCNC1=NN=C(c2cc(C(C)(C)C)c(O)c(C(C)(C)C)c2)CS1 ?
> 200 mg/kg

###

Reported TD50 at 24 h values follow for various molecules
- assaySummary: Acute gastral ulcerogenity
- Design: species or system male Sprague-Dawley rats
- testParameters: rat, in vivo, po
Where a name gives a salt, the structure may show the parent alone.
Just the number in mg/kg, nothing appended.

Example entries begin here.
Could you share which TD50 at 24 h value was measured for CC1CCN(C2=NN=C(c3cc(C(C)(C)C)c(O)c(C(C)(C)C)c3)CS2)CC1 [Example 2, hydrobromide] ?
100

Then what about the molecule CN1CCN(C2=NN=C(c3cc(C(C)(C)C)c(O)c(C(C)(C)C)c3)CS2)CC1 ?
200

Then what about the molecule CC(C)(C)c1cc(C2=NN=C(N3CCCCC3)SC2)cc(C(C)(C)C)c1O ?
100

Next:
Could you share which TD50 at 24 h value was measured for CN(C)C1=NN=C(c2cc(C(C)(C)C)c(O)c(C(C)(C)C)c2)CS1 ?
200

###

- assaySummary: in vivo
- testParameters: mouse, ip, read-out: Acute toxicity LD50
Reported LD50 at 168 h values follow for various compounds

Could you share which LD50 at 168 h value was measured for CCN(C)C1=NN=C(c2cc(C(C)(C)C)c(O)c(C(C)(C)C)c2)CS1 [Example 8] ?
300 to 600 mg/kg

Now turn to the next compound.
Could you share which LD50 at 168 h value was measured for CN(C)C1=NN=C(c2cc(C(C)(C)C)c(O)c(C(C)(C)C)c2)CS1 [Example 1] ?
600 to 1200 mg/kg

###

Reported LD50 at 168 h values follow for various compounds
- assaySummary: in vivo
- testParameters: mouse, ip, read-out: Acute toxicity LD50

Example entries begin here.
Could you share which LD50 at 168 h value was measured for CN(Cc1ccccc1)C1=NN=C(c2cc(C(C)(C)C)c(O)c(C(C)(C)C)c2)CS1 [Example 13] ?
600 to 1200 mg/kg

Then what about the compound CC(C)(C)c1cc(C2=NN=C(N3CCCCC3)SC2)cc(C(C)(C)C)c1O [Example 18] ?
> 1200 mg/kg

Now turn to the next compound.
Could you share which LD50 at 168 h value was measured for CC1SC(N(C)C)=NN=C1c1cc(C(C)(C)C)c(O)c(C(C)(C)C)c1 (stereo not drawn) [Example 22] ?
600 to 1200 mg/kg

###

- assaySummary: in vivo
- testParameters: mouse, ip, single i.p., NMRI mice, mortality within 7 days, read-out: Acute toxicity LD50
Counter-ions that a name gives are not always drawn.
readoutName: LD50 at 168 h

Example entries begin here.
Could you share which LD50 at 168 h value was measured for CC1CCN(C2=NN=C(c3cc(C(C)(C)C)c(O)c(C(C)(C)C)c3)CS2)CC1 [Example 2, hydrobromide] ?
600 to 1200 mg/kg

Then what about the compound Cc1cc(C2=NN=C(N(C)C)SC2)cc(C(C)(C)C)c1O [Example 3, hydrobromide] ?
600 to 1200 mg/kg

Now turn to the next compound.
Could you share which LD50 at 168 h value was measured for CNC1=NN=C(c2cc(C(C)(C)C)c(O)c(C(C)(C)C)c2)CS1 ?
300 to 600 mg/kg

###

- assaySummary: Acute gastral ulcerogenity
- Parameters: species or system male Sprague-Dawley rats
- testParameters: rat, in vivo, po
readoutName: selectivity ratio

Could you share which selectivity ratio value was measured for CN(C)C1=NN=C(c2cc(C(C)(C)C)c(O)c(C(C)(C)C)c2)CS1 ?
~33

###

- assaySummary: Acute gastral ulcerogenity
- Design: species or system male Sprague-Dawley rats
- testParameters: rat, in vivo, po
Counter-ions that a name gives are not always drawn.
readoutName: TD50 at 24 h

Example entries begin here.
Could you share which TD50 at 24 h value was measured for CC(C)(C)c1cc(C2=NN=C(NCc3ccccc3)SC2)cc(C(C)(C)C)c1O ?
> 200 mg/kg

Then what about the compound CNC1=NN=C(c2cc(C(C)(C)C)c(O)c(C(C)(C)C)c2)CS1 ?
100 to 200 mg/kg

Then what about the compound Cc1cc(C2=NN=C(N(C)C)SC2)cc(C(C)(C)C)c1O [Example 3, hydrobromide] ?
> 200 mg/kg

Now turn to the next compound.
Could you share which TD50 at 24 h value was measured for CN(Cc1ccccc1)C1=NN=C(c2cc(C(C)(C)C)c(O)c(C(C)(C)C)c2)CS1 ?
> 200 mg/kg

###

- assaySummary: in vivo
- testParameters: mouse, ip, read-out: Acute toxicity LD50
readoutName: LD50 at 168 h

Could you share which LD50 at 168 h value was measured for C=CCNC1=NN=C(c2cc(C(C)(C)C)c(O)c(C(C)(C)C)c2)CS1 ?
600 to 1200 mg/kg

Then what about the molecule CCCN(CCC)C1=NN=C(c2cc(C(C)(C)C)c(O)c(C(C)(C)C)c2)CS1 ?
> 1200 mg/kg

Then what about the molecule CCN(CC)C1=NN=C(c2cc(C(C)(C)C)c(O)c(C(C)(C)C)c2)CS1 ?
600 to 1200 mg/kg

Then what about the molecule CCN(C1=NN=C(c2cc(C(C)(C)C)c(O)c(C(C)(C)C)c2)CS1)C(C)C ?
> 1200 mg/kg

Then what about the molecule CC(C)(C)c1cc(C2=NN=C(NCc3ccccc3)SC2)cc(C(C)(C)C)c1O ?
600 to 1200 mg/kg

Next:
Could you share which LD50 at 168 h value was measured for CN1CCN(C2=NN=C(c3cc(C(C)(C)C)c(O)c(C(C)(C)C)c3)CS2)CC1 ?
150 to 300 mg/kg
